Origin of values: patent US8633183B2

As a worked illustration, we turn to IC50 data collected for PI3Kalpha (Homo sapiens (Human)).
Value and unit, in that order.

Example entries begin here.
For this compound ( `CCc1ncnc(-c2ccc(C(=O)N3CCN4CCC[C@H]4C3)c(F)c2)c1C#Cc1ccc(N)nc1` ), measured IC50 is 0.107 µM

Entry under test: `Cc1ncnc(-c2cnc3ccccc3c2)c1C#Cc1ccc(N)nc1` . Its IC50 was 0.03 µM

Consider `CCc1ncnc(-c2ccc(C(=O)N(C)CCCN(C)C)c(F)c2)c1C#Cc1ccc(N)nc1` . Its measured IC50 is 0.591 µM

Lookup result for `CCc1ncnc(-c2ccc(C(=O)N3CCNC(=O)C3)c(Cl)c2)c1C#Cc1ccc(N)nc1` ; measured IC50: 0.027 µM

Briefly, IC50 measured for `CCc1ncnc(-c2ccc(C(=O)N3CCN(c4ccccc4)CC3)c(F)c2)c1C#Cc1ccc(N)nc1C` : 0.498 µM

// recorded IC50 for `CCc1ncnc(-c2ccc(C(=O)NCCN3CCCC3=O)c(F)c2)c1C#Cc1ccc(N)nc1` : 0.046 µM

Now consider a different compound.
Per the record, CCc1ncnc(-c2ccc(C(=O)N3CCC(N4CCC(C)CC4)C3)c(Cl)c2)c1C#Cc1ccc(N)nc1 (stereo not shown) has IC50 of 0.233 µM
